# SYSTEM_TESTED: DR5-IgG (human)
# Sequence (chain, as listed by the source): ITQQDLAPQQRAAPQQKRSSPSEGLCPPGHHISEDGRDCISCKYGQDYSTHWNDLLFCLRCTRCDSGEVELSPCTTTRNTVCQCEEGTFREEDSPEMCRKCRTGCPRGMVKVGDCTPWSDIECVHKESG
# EXPERIMENT: BIAcore SPR; KD relative to Flag.Apo2L.WT
RECORDED_ENDPOINT: KD ratio (mut/wt)

- BINDER: "Flag-Apo2L.DR4-8 (ligand) VRERGPQRVAAHITGTRGRSNTLSSPNSKNEKALGRKINSWESSRSGHSFLSNLHLRNGELVIHEKGFYYIYSQTAFRFSEEIKEVTRNDKQMVQYIYKWTDYPDPILLMKSARNSCWSKDAEYGLYSIYQGGIFELKENDRIFVSVTNEHLIDMDHEASFFGAFLVG"
  RECORDED_ENDPOINT: "KD ratio (mut/wt)"
  RECORDED_MEASUREMENT: "1100 ratio (mut/wt)"
